Form: system (EV-A71 3C protease (Human enterovirus 71)), quantity (pIC50), values below.
pIC50: −log10 of the molar value. Non-standard residues stand in square brackets, D forms with d. Residues, ends and D or L forms follow the SMILES beside them. ξ: configuration not given here. *: point of attachment. Nva = CCC[C@H](N)C(=O)O; Cbz = O=C(OCc1ccccc1)*; ξI = CCC(C)C(N)C(=O)O; OtBu = CC(C)(C)O*

Reference set, count: 5
compound="CCC[C@@H](C=O)NC(=O)[C@H](CC(C)C)NC(=O)[C@H](CC(C)C)NC(=O)OCc1ccccc1 [MG-115 (60), MG-115] (Cbz-Leu-Leu-[Nva]-aldehyde)" recorded_result="< 4.70"
compound=CCCC[C@H](NC(=O)[C@@H]1[C@@H]2[C@H](CN1C(=O)[C@@H](NC(=O)NC1(CS(=O)(=O)C(C)(C)C)CCCCC1)C(C)(C)C)C2(C)C)C(=O)C(=O)NC1CC1 recorded_result="< 4.70"
compound="CCC(C)C(NC(=O)OCc1ccccc1)C(=O)N[C@@H](CCC(=O)OC(C)(C)C)C(=O)N[C@@H](C)C(=O)N[C@H](C=O)CC(C)C (stereo partly drawn) [PSI (63), PSI] (Cbz-[ξI]E(OtBu)AL-aldehyde)" recorded_result=4.86
compound="CSCC[C@@H](C=O)NC(=O)[C@H](CC(C)C)NC(=O)[C@H](CC(C)C)NC(C)=O [Calpain inhibitor II (61), Calpain inhibitor II] (Ac-Leu-Leu-Met-aldehyde)" recorded_result="< 4.70"
compound=CCOC(=O)/C=C/[C@H](C[C@@H]1CCNC1=O)NC(=O)[C@@H](CC(=O)[C@@H](NC(=O)c1cc(C)on1)C(C)C)Cc1ccc(F)cc1 recorded_result=7.38

// next entry
Return reported pIC50; argument: CCC[C@H](NC(=O)[C@H](CC(C)C)NC(=O)OCc1ccccc1)C(=O)C(=O)NCc1ccccn1
< 4.70

###

test: Cytotoxicity CPE assay (neutral red), Caco-2; format: cell-based; settings: human, Caco-2 cells, mean ± S.E.
Residues, ends and D or L forms follow the SMILES beside them.
parameter: CC50 at 48 h

Reference set, count: 2
compound="CC(C)C[C@H](NC(=O)OCc1ccccc1)C(=O)N[C@@H](C[C@@H]1CCNC1=O)C(O)S(=O)(=O)[O-].[Na+] (stereo partly drawn) [GC-376 (64), GC-376]" recorded_result="> 100 µM"
compound="CSCC[C@@H](C=O)NC(=O)[C@H](CC(C)C)NC(=O)[C@H](CC(C)C)NC(C)=O [Calpain inhibitor II (61), Calpain inhibitor II] (Ac-Leu-Leu-Met-aldehyde)" recorded_result="> 100 µM"

Return reported CC50 at 48 h; argument: CCC[C@H](NC(=O)[C@H](CC(C)C)NC(=O)OCc1ccccc1)C(=O)C(=O)NCc1ccccn1 [Calpain inhibitor XII (62), Calpain inhibitor XII]
82 µM

###

assay: in vitro
Residues, ends and D or L forms follow the SMILES beside them.
CC50 values by entry

molecule="CC(C)C[C@H](NC(=O)OCc1ccccc1)C(=O)N[C@@H](C[C@@H]1CCNC1=O)C(O)S(=O)(=O)[O-].[Na+] (some centres unmarked) [GC-376 (64), GC-376]" parameter=CC50 recorded_result="> 100 µM"

Return reported CC50; argument: CSCC[C@@H](C=O)NC(=O)[C@H](CC(C)C)NC(=O)[C@H](CC(C)C)NC(C)=O [Calpain inhibitor II (61), Calpain inhibitor II] (Ac-Leu-Leu-Met-aldehyde)
> 100 µM
